Recorded aptazyme ON/OFF ratio for the following variants
B1: Pistol ribozyme (parent)
chain: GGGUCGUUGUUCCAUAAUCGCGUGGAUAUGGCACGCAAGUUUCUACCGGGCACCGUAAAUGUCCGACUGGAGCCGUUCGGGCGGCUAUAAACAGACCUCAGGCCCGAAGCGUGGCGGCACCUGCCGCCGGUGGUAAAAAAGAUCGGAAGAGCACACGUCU

- Variants of: B1
- METHOD_DESCRIPTION: aptazyme ON/OFF ratio, guanine; higher = stronger switching; co-transcriptional cleavage with and without guanine

# VARIANT_SPEC, TEST_VALUE
data = [
    ("U8G G9C U10C U11G C12A", 1.07),
    ("U7G G9C U10C C13U", 1.47),
    ("U8A G9C C12G C13U", 1.27),
    ("U7C U8C G9A U10A U11C C13A", 1.16),
    ("U8C G9U U10C C12G C13G", 1.19),
    ("U7C U8A G9A U10A C12U", 1.22),
    ("U7G G9A U10C U11C C12G C13U", 1.03),
    ("U7G U8C G9U U10C U11A", 3.02),
]

# query: aptazyme ON/OFF ratio of entry U8C U10A U11C C12G C13G
1.38

What value of aptazyme ON/OFF ratio has been reported for the following variant? U7C U8C G9U U10G U11G C12A C13G
1.09

Reported aptazyme ON/OFF ratio, variant U7C U8A G9C U10C C12A C13G : ____
1.07
